Tested on: RPMI-8226 leukemia
Assay: NCI tumour cell line growth inhibition, 48 h
property: TGI

// worked examples, TGI included
molecule=O=C([O-])C1([n+]2c(-c3ccccc3)cc(-c3ccccc3)cc2-c2ccccc2)CC1 study_target="RPMI-8226 leukemia" property=TGI value_observed="> 100 µM"
molecule=CC(C)C/C(=N\NC(=O)c1ccncc1)c1cc(Cl)ccc1O study_target="RPMI-8226 leukemia" property=TGI value_observed="> 50.7 µM"
molecule=COc1ccc2nc(-c3ccc(O)cc3)ccc2c1 study_target="RPMI-8226 leukemia" property=TGI value_observed="> 100 µM"

Please tell me: TGI of CCN1C(=O)N2C(OC)c3ccccc3C(Br)C2(OC)C1=O (configuration not stated) , system RPMI-8226 leukemia? > 100 µM

// fetch RPMI-8226 leukemia TGI for Cn1cnnc1SC(F)(F)c1nc2ccccc2o1 > 100 µM

Query TGI on RPMI-8226 leukemia for Clc1ccc(Cn2cc(/C=N/n3cnnc3)c3ccccc32)cc1 > 100 µM

Checklist item: TGI tested on RPMI-8226 leukemia, entry COC(=O)c1ccccc1/C=C1\Cc2ccc3ccccc3c2C1C (configuration not stated) , value? > 100 µM

Please provide the recorded TGI for CC1=C(C(=O)CC(=O)C(=O)Nc2ccccc2C)Sc2ccccc2N1 , tested on RPMI-8226 leukemia. > 65.5 µM
